Test system: HCT-116
Test: NCI tumour cell line growth inhibition, 48 h
Structures can show the parent of a compound that is named as a salt. The source made the active and inactive calls. Rule as the data show it: active = GI50 up to about 1.1 µM and inactive = higher.
Use one of these outcomes when replying: T (active), F (inactive)

Record lookup: outcome of this test for `NNC(=O)/C(=C/c1cccc([N+](=O)[O-])c1)NC(=O)c1ccccc1` ?
F

Record lookup: outcome of this test for CC1(S)CC2C(CC1Sc1ccccc1)C2(C)C (configuration not stated) ?
F

Record lookup: outcome of this test for `O=C1C(O)=C(Cc2ccccc2)C(=O)c2ccccc21` ?
F

Record lookup: outcome of this test for `O=C(c1ccco1)N(C(=S)OC12CC3CC(CC(C3)C1)C2)c1ccccc1` ?
F

Record lookup: outcome of this test for COC1C(O)=C2C(=O)OC(C)(O)/C=C/C=C\C=C/C=C/C(c3ccccc3)NC(=O)/C=C/C=C/C=C/C=C/C2(C)C1O (configuration not stated) ?
T

Record lookup: outcome of this test for `O=C1NCN(c2ccccc2)C12CCN(CCCN1CCN(CCOC(c3ccccc3)c3ccccc3)CC1)CC2` ?
F

Record lookup: outcome of this test for CCCCc1oc2ccccc2c1C(=O)c1cc(I)c(OCCN(CC)CC)c(I)c1 [AMIODARONE HYDROCHLORIDE] ?
F

---

Tested on: DLD-1
Experiment: NCI tumour cell line growth inhibition, 48 h
Activity calls are given as the source filed them. Cut-off read from the data, not from the text of the source: active = GI50 up to about 1.1 µM and inactive = higher.
READOUT: GI50

For reference, reported GI50 for `CCCCCCCCCCCCCCCCc1c(O)nc(NN)nc1C(=O)OC` stands at > 50 µM (inactive)

For reference, reported GI50 for `CC(C)c1cccc(=O)c(O)c1` stands at 1.73 µM (inactive)

For reference, reported GI50 for CCN1C(=O)N(C)C(O)c2c1nc1ccccn1c2=O (stereo unspecified) stands at 31.4 µM (inactive)

For reference, reported GI50 for `NNC(=O)/C(=C/c1cccc([N+](=O)[O-])c1)NC(=O)c1ccccc1` stands at > 100 µM (inactive)

For reference, reported GI50 for `S=C1NCCN1` stands at > 100 µM (inactive)

For reference, reported GI50 for `O=C1OC(=O)c2c1nc1ccccc1c2-c1ccccc1` stands at > 100 µM (inactive)

---

System: HCC 2998
Assay: NCI tumour cell line growth inhibition, 48 h
Counter-ions that a name gives are not always drawn. Active and inactive are the calls of the source. Cut-off read from the data, not from the text of the source: active = GI50 up to about 1.1 µM and inactive = higher.
READOUT: GI50

For reference, reported GI50 for `Nc1nnc2oc3ccc4ccccc4c3cc1-2` stands at 20.3 µM (inactive)

For reference, reported GI50 for `COc1ccc(NCc2cc(OC)cc(OC)c2)cc1` stands at 12.1 µM (inactive)

For reference, reported GI50 for CC(=O)OCC(=O)[C@@]12OC(C)(C)O[C@@H]1C[C@H]1[C@@H]3CC(C=O)=C4C=C(OCCCl)CC[C@]4(C)[C@@]3(F)[C@@H](O)C[C@@]12C [FORMOCORTAL] stands at 15.3 µM (inactive)

For reference, reported GI50 for CC1=C2C(=O)OCC23C=COC3(C)O1 (stereo not given) stands at 69.3 µM (inactive)

For reference, reported GI50 for CCCCc1oc2ccccc2c1C(=O)c1cc(I)c(OCCN(CC)CC)c(I)c1 [AMIODARONE HYDROCHLORIDE] stands at 3.85 µM (inactive)

For reference, reported GI50 for O=C1Nc2ccccc2/C1=C1/Nc2ccccc2/C1=N\OCCOC1OCC(O)C(O)C1O (stereo not given) stands at 25.5 µM (inactive)

For reference, reported GI50 for `CCCCOc1ccc2c(c1)CC[C@@H]1[C@@H]2CC[C@]2(C)C(=O)N(CCCC)C(=O)C[C@@H]12` stands at > 100 µM (inactive)

For reference, reported GI50 for `Cc1ccc(/C=C/C(=O)c2ccc(Cl)c(Cl)c2)cc1` stands at > 100 µM (inactive)

For reference, reported GI50 for COc1ccccc1NC(=O)C(=O)C(C#N)CC(C)(C)C=O (stereo not given) stands at > 100 µM (inactive)

For reference, reported GI50 for COC(=O)CC1CC2(C(=O)OC)c3[nH]c4ccccc4c3CCN2C1=O (stereo not given) stands at > 100 µM (inactive)

For reference, reported GI50 for `O=c1c2ccccc2c(=O)n2n1CC=CC2` stands at > 100 µM (inactive)

For reference, reported GI50 for CCN1C(=O)N(C)C(O)c2c1nc1ccccn1c2=O (stereo not given) stands at 20.3 µM (inactive)

For reference, reported GI50 for CC(C)c1cccc(C(C)C)c1NC(=O)C(=O)C(C(=O)c1ccc2ccccc2c1)C1OC(=O)c2ccccc21 (stereo not given) stands at > 100 µM (inactive)

For reference, reported GI50 for NCC(O)CNC(=O)c1ccc(-c2ccc(-c3ccc(C(=O)NCC(O)CN)cc3)o2)cc1 (stereo not given) stands at 25.1 µM (inactive)

For reference, reported GI50 for `Cc1cc(C)c(-n2[nH]c(=O)n(C)c2=O)c(C)c1` stands at > 100 µM (inactive)

---

System: SW-620
Experiment: NCI tumour cell line growth inhibition, 48 h
Active and inactive are the calls of the source. Cut-off read from the data, not from the text of the source: active = GI50 up to about 1.1 µM and inactive = higher.
Provide the reported GI50 of each item.

For reference, reported GI50 for `O=[N+]([O-])c1ccc2occ3c2c1CCC3` stands at > 100 µM (inactive)

For reference, reported GI50 for COC1(OC)CC2OC1C1N=NN(C(=O)OC(C)(C)C)C21 (centres undefined) stands at 57.5 µM (inactive)

For reference, reported GI50 for `O=CC1=CCCN(CCc2c[nH]c3ccccc23)C1` stands at 17.6 µM (inactive)

For reference, reported GI50 for O=C(O)C1OC1(c1cccc(Cl)c1)c1ccccc1Cl (centres undefined) stands at 20.7 µM (inactive)

For reference, reported GI50 for `CC(=O)O[C@H]1C#C/C=C\C#CC[C@@H]2C(=O)N(C(=O)OC(C)(C)C)[C@@H]12` stands at 48.8 µM (inactive)

For reference, reported GI50 for `COC(=O)[C@H](NC(=O)OC(C)(C)C)[C@H]1COC(C)(C)O1` stands at > 100 µM (inactive)

For reference, reported GI50 for `O=[N+]([O-])c1nccn1CCCNc1c2ccccc2[n+]([O-])c2ccccc12` stands at > 100 µM (inactive)

For reference, reported GI50 for `CC(C)(C)CC(C)(C)c1cc2c(O)c(c1)Cc1cc(C(C)(C)CC(C)(C)C)cc(c1O)Cc1cc(C(C)(C)CC(C)(C)C)cc(c1O)Cc1cc(C(C)(C)CC(C)(C)C)cc(c1O)C2` stands at > 100 µM (inactive)

For reference, reported GI50 for COc1ccc(N2C(=O)C3c4[nH]c5ccc(C)cc5c4C4CCC(C)CC4C3C2=O)cc1 (centres undefined) stands at > 100 µM (inactive)

For reference, reported GI50 for `Nc1nc2c3nc(Nc4ccccc4)sc3nc(=O)n2c2sc(Nc3ccccc3)nc12` stands at > 100 µM (inactive)

For reference, reported GI50 for `Cc1ccc(/C=C/C(=O)c2ccc(Cl)c(Cl)c2)cc1` stands at > 100 µM (inactive)

For reference, reported GI50 for `CCCCCC(=O)Nc1[nH]cnc1C(N)=O` stands at > 100 µM (inactive)

For reference, reported GI50 for `CSc1ccccc1P(c1ccccc1SC)c1ccccc1SC` stands at > 100 µM (inactive)

For reference, reported GI50 for `NS(=O)(=O)c1nnc(NC(=O)/C=C/C(=O)O)s1` stands at > 100 µM (inactive)

---

Tested on: SF-295
Test: NCI tumour cell line growth inhibition, 48 h
The source made the active and inactive calls. Rule as the data show it: active = GI50 up to about 1.1 µM and inactive = higher.
READOUT: GI50

For reference, reported GI50 for `COc1ccc2/c(=C/c3ccc(N(C)C)cc3)c3cc(-c4ccccc4)[n+](C)n3c2c1` stands at 0.194 µM (active)

For reference, reported GI50 for `CCCCOc1ccc2c(c1)CC[C@@H]1[C@@H]2CC[C@]2(C)C(=O)N(CCCC)C(=O)C[C@@H]12` stands at > 100 µM (inactive)

For reference, reported GI50 for N=C1N(c2ccccc2)C(=O)C23CCCC2C13N1CCOCC1 (stereo not drawn) stands at > 100 µM (inactive)

For reference, reported GI50 for CCc1ccccc1NC(=O)C(=O)C(C#N)c1c(Cl)cccc1Cl (stereo not drawn) stands at > 100 µM (inactive)

For reference, reported GI50 for O=C1Nc2ccccc2/C1=C1/Nc2ccccc2/C1=N\OCCOC1OCC(O)C(O)C1O (stereo not drawn) stands at > 100 µM (inactive)

For reference, reported GI50 for CCOC(=O)C1=C(C)NC(=S)NC1c1cccc(O)c1 (stereo not drawn) [MONASTROL] stands at 30.5 µM (inactive)

For reference, reported GI50 for COc1cc(C2OC[C@@H]3C(=O)OC[C@H]23)cc(O)c1OC (stereo partly drawn) stands at > 100 µM (inactive)

For reference, reported GI50 for `C[C@H]1[C@@H](c2ccccc2)O[B-](c2ccccc2)(c2ccccc2)[N+]1(C)C` stands at 32.6 µM (inactive)

For reference, reported GI50 for CC(=O)OC1CC2CC(=O)CC1N2C (stereo not drawn) stands at > 100 µM (inactive)

For reference, reported GI50 for `CC1(C)C(=O)CCC(=O)C(C)(C)C2=CC=C(O2)C(C)(C)C(=O)CCC(=O)C(C)(C)C2=CC=C1O2` stands at > 100 µM (inactive)

For reference, reported GI50 for `COC(=O)NN1C(=O)C(=P(c2ccccc2)(c2ccccc2)c2ccccc2)C(C(=O)OC)=C1C` stands at > 100 µM (inactive)

For reference, reported GI50 for COC1(OC)CC2OC1C1N=NN(C(=O)OC(C)(C)C)C21 (stereo not drawn) stands at > 100 µM (inactive)

For reference, reported GI50 for `CCN(CC)CCNc1nc2ccc([N+](=O)[O-])cc2[n+]([O-])n1` stands at 32.1 µM (inactive)
